Origin of measurements: a melting point compilation (Tetko et al.; mined from patent text by program, amines drawn as free bases though some values may be those of a salt)

Record form. Attribute: melting point. Fill in for each entry.

Use these answered entries as a reference point.
Compound	melting point
CCC1(O)c2ccccc2C=Cc2ccccc21	63 to 65 °C
NC(=O)C1C=Cc2ccccc2N1C(=O)c1ccc(F)cc1 (stereo unspecified)	149 to 151 °C
CCn1c(=O)c2[nH]c(/C=C/c3ccc(OC)c(OC)c3OC)nc2n(CC)c1=O	276 to 277 °C

# return melting point for each item in the list
1. O=C(NO)c1ccc(OC/C=C/COc2ccc(C(=O)NO)cc2)cc1
2. CN1CCN(Cc2c(O)ccc3c2OCO3)CC1
3. CCCCCCCNC(=O)Nc1ccc(NC(=O)NCCCC)cc1C(=O)NC1CCN(C(c2ccccc2)c2ccccc2)CC1

Result:
1. 205 to 210 °C
2. 85 to 87 °C
3. 209 to 211 °C

---

Kindly state melting point for each of the entries shown.

Compound	melting point
O=C(NC(Cc1ccc(OCc2ccccc2)cc1)C(=O)O)c1cn2ccc(-c3ccc(Cl)cc3)cc2n1 (centres undefined)	248 to 249 °C
COC(=O)CCCC=C1SC(=S)N(N=c2sc3ccccc3s2)C1=O	210 °C

Below are 2 compounds. Give each one its melting point.
1. Cc1ccc(C)c(S(=O)(=O)Nc2onc(C)c2Br)c1
2. Cc1c(Cl)nc(-c2ccc([N+](=O)[O-])o2)nc1Cl

Result:
1. 102 to 104 °C
2. 174 to 175 °C

Give me melting point for each of these compounds, listed below.
1. N#Cc1c(NC(=O)CO)cccc1NC(=O)CO
2. C[C@H]1C=CC2=C[C@@H](O)C[C@H](OC(=O)C(C)(C)Oc3ccccc3)[C@@H]2[C@H]1CC[C@@H]1C[C@@H](O)CC(=O)O1
3. CC1(C)Oc2ccc(C#N)cc2[C@@H](Br)[C@@H]1O (relative stereo)
4. O=C1Nc2ccccc2OC1c1ccc(Cl)cc1 (centres undefined)
5. Cc1cc(-c2sc(N3CCN(Cc4ccc(C(=O)N5CCCCC5)cc4)C3=O)nc2C)[nH]n1

Result:
1. 188 to 189 °C
2. 155 to 158 °C
3. 111 to 112 °C
4. 180 to 182 °C
5. 182 to 183 °C

---

Record form. Attribute: melting point. Fill in for each entry.

Take a look at these entries with their results.
Compound	melting point
CCn1ncc2c1ncc1c(NC)nc3ncnn3c12	> 300 °C
CCN(C)C(=S)Nc1cc(Cl)c(OCCC[Si](C)(C)C)cc1C	71 to 72 °C
O=C1N(c2ccccc2)c2ccccc2C1(Cc1ccncc1)Cc1ccncc1	186 to 188 °C
CCCCNC(=O)OCC(=NNC(N)=S)c1ccccc1	103 to 116 °C
N#Cc1cc2c3ccccc3n(Cc3ccccc3)c2s1	130 to 132 °C

Give melting point for each listed item.
1. CN(CCN1CCNC1=C(C#N)C#N)Cc1ccc(CN2CCCCC2)o1
2. CN1CCN(S(=O)(=O)c2cccc(NC(=O)c3cnn4c(C(F)(F)F)cc(-c5ccc(Cl)c(Cl)c5)nc34)c2)CC1
3. CCCCc1nn(-c2ccccc2Cl)c(=O)[nH]1
4. O=C(Nc1c[nH]nc1C(=O)NCCSc1ccccn1)c1ccccn1
5. N#Cc1ccc2ccn(C3CCN(CCc4ccc(F)cc4)CC3)c2c1

Result:
140 to 143 °C
181 °C
103 to 104 °C
162 to 163 °C
131 to 132 °C
